target: HLA-A*32:15; assay: IEDB peptide-MHC binding, purified MHC/competitive/fluorescence; filed as Kd, often an IC50 or EC50 that approximates it; bounds were set here for any values at or beyond the usual limits of such assays; conditions: source organism: Entamoeba histolytica HM-1:IMSS
readout_name: Kd (nM)
Value expressed in nM; do not type the unit.

Field request: Kd | item: YIISTHYQF
213

* * *

target: HLA-B*08:01; experiment: IEDB peptide-MHC binding, purified MHC/direct/fluorescence; filed as Kd, often an IC50 or EC50 that approximates it; bounds were set here for any values at or beyond the usual limits of such assays; details: source organism: H9N2 subtype Influenza A virus (A/swine/Korea/S81/2004(H9N2))
pKd: −log10 of the molar value.
readout_name: pKd

Field request: pKd | item: KAVRGDLNF
≤ 4.70

* * *

target: HLA-A*02:03; assay: IEDB peptide-MHC binding, purified MHC/direct/fluorescence; filed as Kd, often an IC50 or EC50 that approximates it; bounds were set here for any values at or beyond the usual limits of such assays; conditions: source organism: Ravn virus - Ravn, Kenya, 1987
pKd: −log10 of the molar value.
readout_name: pKd

Field request: pKd | item: DLEKYNLAF
≤ 4.70

* * *

molecular target: HLA-A*30:01; assay: IEDB peptide-MHC binding, purified MHC/competitive/radioactivity; filed as Kd, often an IC50 or EC50 that approximates it; bounds were set here for any values at or beyond the usual limits of such assays; details: source organism: Dengue virus 4 Philippines/H241/1956
Here the recorded Kd is given for each entry.
Value expressed in µM; do not type the unit.

Field request: Kd | item: ITTATRCPTQ
9.44

Please find the next sequence below.
Field request: Kd | item: RTIMAVLFV
0.135

* * *

molecular target: HLA-A*26:02; experiment: IEDB peptide-MHC binding, purified MHC/competitive/fluorescence; filed as Kd, often an IC50 or EC50 that approximates it; bounds were set here for any values at or beyond the usual limits of such assays; settings: source organism: Vaccinia virus Copenhagen
readout_name: Kd

Field request: Kd | item: KYFDDVTAF
≥ 20 µM

* * *

target: HLA-B*18:01; test: IEDB peptide-MHC binding, purified MHC/competitive/radioactivity; filed as Kd, often an IC50 or EC50 that approximates it; bounds were set here for any values at or beyond the usual limits of such assays; details: source organism: Mammarenavirus machupoense
readout_name: pKd
Just the number, please; pKd means minus log10 of the concentration in mol/L.

Field request: pKd | item: DELGNILSTY
8.06

Please find the next sequence below.
Field request: pKd | item: EELSLMYEAL
5.74

* * *

target: HLA-A*02:02; assay: IEDB peptide-MHC binding, purified MHC/competitive/radioactivity; filed as Kd, often an IC50 or EC50 that approximates it; bounds were set here for any values at or beyond the usual limits of such assays; details: source organism: Mammarenavirus machupoense
readout_name: Kd (nM)
Value expressed in nM; do not type the unit.

Field request: Kd | item: KSYFTNAAL
593

* * *

biological target: HLA-B*83:01; test: IEDB peptide-MHC binding, purified MHC/competitive/fluorescence; filed as Kd, often an IC50 or EC50 that approximates it; bounds were set here for any values at or beyond the usual limits of such assays; conditions: source organism: Vibrio parahaemolyticus RIMD 2210633
readout_name: Kd

Field request: Kd | item: SMNYPNSYK
≥ 5 µM

Values compiled from the Immune Epitope Database (IEDB).
